FYI, the data here is from paper PMC7076710.

This section presents molecules with their documented LDH.3µM values.
System: COS-1 cells
TEST DETAILS: LDH assay (necrosis)
Type: cell-based
TEST CONDITIONS: 3 µM
ATTRIBUTE MEASURED: LDH.3µM

>>> print(df.to_string())
                                   molecule  attribute_measured  test_result
0  Cc1onc(-c2ccccc2)c1C(=O)Nc1ccc(OCc2ccccc2)cc1 [SI8]             LDH.3µM         2.05
1  CCN(CC)c1ccc(NC(=O)c2c(C)noc2-c2cc(C)on2)cc1 [Compound 3]             LDH.3µM        -0.67
2  CCN(CC)c1ccc(NC(=O)c2c[nH]nc2-c2ccccc2)cc1 [SI89]             LDH.3µM         1.68
3  COc1ccc(-c2cc(NC(=O)c3ccc(C(C)(C)C)cc3)n[nH]2)cc1 [Compound 72]             LDH.3µM         0.82
4  CCN(CC)c1ccc(NC(=O)c2c(C)noc2-c2ccccc2)cc1 [Compound 65]             LDH.3µM        -0.82
5  Cc1onc(-c2ccccc2)c1COc1ccc(C(=O)OCCC#N)cc1 [Compound 35a]             LDH.3µM         1.44
6  CCN(CC)c1ccc(CNc2c(-c3ccccc3)noc2C)cc1 [Compound 33]             LDH.3µM         2.98
7  CC(=O)COC(=O)c1ccc(OCc2c(-c3ccccc3)noc2C)cc1 [Compound 35d]             LDH.3µM         -0.5
8  CCN(CC)c1ccc(/C=N/c2c(-c3ccccc3)noc2C)c(O)c1 [SI44]             LDH.3µM          1.4
